assay readout: melting point

molecule | assay readout | result
CC(C)OCCN1C(=O)N2CCOC2(c2ccccc2)c2cc([N+](=O)[O-])ccc21 (stereo unspecified) | melting point | 123 to 124 °C
OCC1OC(n2cnc3c(Cl)ncc(F)c32)C(O)C1O (stereo unspecified) | melting point | 187 to 189 °C
O=C(O)c1ccc(-c2ccc(C(F)(F)F)cc2)s1 | melting point | 227 °C
O=[N+]([O-])c1ccc(-n2ccnn2)cc1 | melting point | 205 to 206 °C
Cc1nnc(-c2cc(Cl)c(Cl)c(Cl)n2)s1 | melting point | 148 to 150 °C

Documented melting point of COc1ccc(C(C#N)Cc2cc(OC)c(OC)c(OC)c2)cc1 (stereo unspecified) : 102 to 103 °C

---

Below, each entry is listed with its recorded melting point.

Record excerpt, results attached:
molecule | melting point
Cc1ncc(C(=S)Nc2c(Cl)cncc2Cl)cc1OC1CCCC1 | 144 to 145 °C
CCOC(=O)c1c[nH]c2c(F)c(C(C)=O)c(F)cc2c1=O | 267 to 270 °C
CCC(=O)N1CCC(NC(=O)NC2CCCCC2)CC1 | 177 to 179 °C
CC(C)Sc1cccc(-c2nc(=O)c3ccccc3s2)n1 | 185 to 186 °C
COc1ccc(-c2c(Cl)nc(Cl)nc2-c2ccccc2)cc1 | 132 to 134 °C

The molecule listed as COC(=O)C(C#N)=C(O)c1cc(F)c(F)c(F)c1F has a reported melting point of 71 to 73 °C

// melting point value for CCOC(=O)[C@H](CCc1ccccc1)NC(=O)C1(NC(=O)[C@@H](SC(C)=O)C2CCOCC2)CCCC1 : 107 to 111 °C

Cn1c(S)nnc1C(O)(c1ccc(Cl)cc1)c1cc2c3c(c1)c(-c1cccc(Cl)c1)cc(=O)n3CO2 (configuration not stated) yielded melting point of 193 °C

Entry Cc1cccc(COc2cccc(OCc3ccc(C(C)(C)C)cc3)c2)c1C(=O)O ; melting point = 122 to 123 °C

# melting point (molecule: Cc1cc2c(cc1C)C1(CO2)C(=O)N(C(c2ccccc2)c2ccccc2)c2ccccc21 (configuration not stated) ) is 193 to 195 °C

// sample O=C1c2cc(O)ccc2CN1c1ccc2sccc2c1 , its melting point was 226 to 228 °C

---

Quick list: melting point per entry.

The value of melting point measured for the compound COC(=O)c1ccc2nc3scc(C)c3c(=O)n2c1 turned out to be 208 to 209 °C

Record summary for CC(=O)c1ccc(Oc2ccc(Cl)c3ccccc23)cc1 : reported melting point = 95 to 99 °C

melting point in this record for CC(C)c1cccc(C(C)C)c1NC(=O)CC1=C(c2ccccc2)c2cc(Cl)ccc2N(C)C1 : 192 to 194 °C

Summary for this compound, COc1cc(C(=O)O)ccc1Cc1cn(C)c2ccc(CCNC(=O)N(C)C)cc12 : melting point is 195 to 196 °C

Data point: CC(C)(O)C1(c2onc(-c3ccc(O)cc3)c2-c2ccccc2)CC1 ; melting point = 212 to 213 °C

Documented melting point of O=c1oc2cc(Oc3nnnn3-c3ccccc3)ccc2c2c1CN(Cc1ccccc1)CC2 : 165 to 166 °C

The measured melting point associated with CCOC(=O)/C=C/c1ccc(/C=C/c2c(OC)cc3c(c2OC)C(C)(C)CCC3(C)C)cc1 reads 205 to 207 °C

For record Cc1cc(N2CCCC2)cc2c1C(=O)OC2=O the listed melting point is 222 to 225 °C

melting point for O=C(/C=C/c1cccc(NC(=O)/C=C/c2ccc3c(c2)OCO3)c1)NO is 128 °C

Given item CCCCNC(=O)NCCCCCCCCCCCCN , the value recorded as its melting point is 97 °C

---

Reported melting point values for a set of compounds

compound | result
COc1ccc(CNc2nc(N3CCC[C@H]3CO)ncc2C(=O)Nc2cncnc2)cc1Cl | 192 to 195 °C
CC(C)(CC(C)(c1ccc(O)cc1)c1ccc(O)cc1)c1ccc(O)cc1 | 150 to 151 °C
Oc1cccc(-n2cnc(-c3ccccc3)c2)c1 | 195 to 197 °C
CC1(C)N=C(c2ccccc2Cl)c2cc([N+](=O)[O-])ccc2N(CCO)C1=O | 192 to 194 °C
CCOC(=O)c1cnc(-c2cc3cccc(NS(=O)(=O)c4cccs4)c3n2COC)s1 | 133 to 134 °C
Cc1nc2c(Cl)c(NC(=O)c3ccc(-c4ccccc4)cc3)ccc2s1 | 168 to 169 °C
CCOc1cc(C2CSCCC2=O)ccc1OC (stereo not given) | 108 to 110 °C
CCOCCn1cc2c(C3C(=O)Nc4ccc(Cl)cc43)nc(NCCc3cccnc3)nc2n1 (stereo not given) | 224 to 226 °C

melting point reading for CCCCCCCCC(=O)NC1CC(C)(C)N(CC#N)C(C)(C)C1 : 68 °C

The compound CCCCCCCCCCCCCCCCCC(=O)N1CC(O)C1 showed melting point equal to 86 to 87.5 °C

---

Reported values of melting point for individual entries

melting point reading for Cc1cc(Nc2cc(-c3cnc4cc[nH]c4c3)cn3ccnc23)nn1CCO : 127 to 130 °C

Summary for this compound, Cc1cc2nnn(C(=O)N3CCOCC3)c2cc1C : melting point is 191 °C

# melting point (compound: Cc1noc(=O)c2ccc(NC(=O)C(C)(O)CC(C)(C)c3ccccc3)cc12 (stereo not given) ) is 173 to 175 °C

// melting point value for Cn1cc(-c2cc(-c3cnc4[nH]ncc4c3)ccn2)n(-c2ccc(C(C)(C)C#N)cc2)c1=O : 294 °C

The compound listed as O=C1CCC(=C2CCC(C3CCCCC3)CC2)CC1 (stereo not given) shows melting point equal to 81 to 81.5 °C

---

assay readout: melting point

molecule | assay readout | result
CCOC(=O)C(C#N)C(=O)c1cccn1C (stereo unspecified) | melting point | 74 to 77 °C

# melting point (molecule: CCn1c2c(nc(-c3ccc(Cl)cc3)c1=O)CCCC2 ) is 110 to 113 °C

Record CC(C)c1nc(CCOCc2ccccc2)n(CCO)c1Sc1cc(Cl)cc(Cl)c1 . Reported melting point: 129 to 130 °C

---

melting point for assorted compounds

compound | melting point
O=C1Nc2ccccc2C2(c3ccccc3)OCCN12 (centres undefined) | 194 °C

Query CC(=O)Nc1ccc(S(=O)(=O)Nc2ccn(C3CC3)c(=O)n2)cc1 yields melting point of 139 to 143 °C

Sample CC(C)(C)c1ccnc(C(=O)c2[nH]c3ccc(Cl)cc3c2CC(=O)O)c1 ; melting point observed: 209 to 211 °C

Entry O=C(O)c1ccc(OCCCCCCCCCCO)cc1 ; melting point = 115 to 117 °C

---

assay readout: melting point

Examples from the recorded data:
molecule | melting point
Cc1nc(/C=C/c2ccccc2)no1 | 166 to 168 °C
Oc1cnn(-c2ccc(Cl)cc2)c1 | 127 to 128 °C
Cc1c(C)c2c(c(C)c1N)CC(C)(CSc1ccncc1)O2 (stereo unspecified) | 96 to 97 °C
Cn1nc2c(N)nc3ccccc3c2c1CC1(F)CCOCC1 | 252 to 254 °C
CCN1CCC2(c3cccc(O)c3)CC(Cc3ccccc3)=CCC2C1 (stereo unspecified) | 160 to 162 °C

// sample O=C(CBr)Nc1ccc(C(=O)O)cc1 , its melting point was 241 to 243 °C

# melting point of COC(=O)CSc1nc(Sc2ccc(Cl)cc2)ncc1[N+](=O)[O-] = 157 to 159 °C

For record C=COCCn1c(CN2CCN(C)CC2)nc2ccccc21 the listed melting point is 65.5 to 67.5 °C

Per the record, COc1ccc(CCNC(=O)CC=CCC(=O)NCCc2ccccc2)cc1OC has melting point of 150 to 152 °C

Note to self: melting point recorded for CN1C(=O)C2(COc3cc4c(cc32)OCCO4)c2c(NS(C)(=O)=O)cccc21 (stereo unspecified) was 184 to 186 °C

// recorded melting point for N#Cc1ccc(N2CCN(Cc3ccccc3)CC2)cc1 : 104 to 105 °C

---

assay readout: melting point

compound | melting point
O=C(O)C(CF)=NOCC=Cc1ccccc1 | 81 to 83 °C
C=CCONC(O)(CC)C1C(=O)C=C(CC)OC1=O (stereo unspecified) | 62.5 to 64 °C
CCCCc1[nH]c2ccc([N+](=O)[O-])cc2c1C(=O)c1ccc(O)cc1 | 230 °C

Shift focus to the following entry.
melting point in this record for O=C1NCCc2cc(F)ccc21 : 107 to 108 °C

---

assay readout: melting point

Recorded results for 5 compounds are shown here.
compound | assay readout | result
COC(=O)CCC(=O)c1ccc(-c2ccc(C#N)cc2)cc1 | melting point | 149 to 151 °C
CCC1c2c(ncn2CC)CCN1C(=O)NC(C)C (stereo not given) | melting point | 155 °C
Cc1[nH]cnc1CSCCNc1[nH]cc(Cc2ccccc2)c1[N+](=O)[O-] | melting point | 192 to 193 °C
Cc1ccccc1C(CCC(=O)NS(=O)(=O)c1ccccc1)Oc1cc(OCc2ccsc2)ccc1C#N (racemic) | melting point | 68 to 70 °C
CCOC(=O)C(CCN1CCN(c2ncc(F)cn2)CC1)C(=O)c1ccc(F)cc1 (stereo not given) | melting point | 95 to 96 °C

Summary for this compound, O=C1c2cccc3cccc(c23)C(=O)N1CCO : melting point is 172 to 173 °C

Looking up CC1(C)Oc2ccc([N+](=O)[O-])cc2C(n2ccccc2=O)=C1CNC(=O)C(F)(F)F , I see its melting point listed as 189 °C

melting point reported for this compound CCCCc1nc2c(N)nc3cc(-c4cccnc4)ccc3c2n1CCNC(=O)C(C)C : 228 to 230 °C

The compound listed as CN(C)c1ncc(NC(=O)c2cc3cc(C(F)(F)F)cnc3n2Cc2cccc(F)c2)cn1 shows melting point equal to 236 to 238 °C

Noted for N#CC(C=CC=O)=C(c1ccc(F)cc1)c1ccc(F)cc1 : its melting point reads 155 to 156 °C

Value of melting point reported for the compound COc1c(Cl)c(C=O)c(Cl)c(OC)c1OC is 76 °C

Summary for this compound, Cc1cc([N+](=O)[O-])ccc1NC(=O)n1nc(Oc2cccc(C(F)(F)F)c2)cc1C : melting point is 165 to 166 °C

Short answer for CNc1nc(-c2cccc(NC(=O)Nc3ccccc3)c2)c2cc(OC)c(OC)cc2n1 : melting point was 218 to 220 °C

Documented melting point of Cc1cc(-c2nnc(C(C)(C)C)o2)ccc1[N+](=O)[O-] : 123 to 125 °C

Noted for COc1ccc(-c2nc(N)c(C#N)nc2-c2ccc(=O)n(C(C)C)c2)cc1 : its melting point reads 244 °C

GET /value?item= CCOC(=O)c1c(Cl)c2sccc2[nH]c1=O &field=melting point returns 206 °C

Note to self: melting point recorded for COc1ccccc1-c1nn(C(C)(C)C(=O)N(C)C)cc1C was 146 to 148 °C

Please fill in: melting point reported for O=C(CCC(F)([N+](=O)[O-])[N+](=O)[O-])NNC(=O)C(F)(F)C(F)(F)F = 128 to 132 °C

COc1ccc(C2CCS(=O)(=O)C2)cc1OC1CCCC1 (stereo not given) has a reported melting point of 89 to 90 °C

melting point reported for this compound Cc1cc2c(-c3ccccc3)c(NC(=O)N(C)Cc3ccccc3)n(C)c(=O)c2cc1C : 174 to 176 °C
